biological target: T1, His-tagged huCB1-ND (human CB1 in nanodisc) (human); assay: flow cytometry, yeast-displayed IgG, binding/display ratio
T1 construct: CB1 construct of Cell 167(3) (2016) 750-762 expressed in Sf9 cells; POPC:MSP1D1:CB1 480:8:1; also called CB1-nanodisc; huCB1-Nanodisc; not shown: histidine purification tag
T1 sequence (P21554 99-414): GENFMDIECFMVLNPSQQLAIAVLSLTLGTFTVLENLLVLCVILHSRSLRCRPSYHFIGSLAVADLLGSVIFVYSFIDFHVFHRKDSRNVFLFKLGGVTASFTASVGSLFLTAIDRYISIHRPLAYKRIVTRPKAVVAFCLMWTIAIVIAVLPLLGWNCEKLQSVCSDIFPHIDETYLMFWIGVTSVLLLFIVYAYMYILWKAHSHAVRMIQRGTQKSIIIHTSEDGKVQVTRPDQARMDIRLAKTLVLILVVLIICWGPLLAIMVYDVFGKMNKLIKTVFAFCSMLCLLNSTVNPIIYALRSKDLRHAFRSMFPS
Field 'label' (enum: Yes / No). Set to Yes when 0.200 nM huCB1-Nanodisc binding (relative to 10D10N35Y) is strictly under 5 fold; else No.

binder	assigned category
LIBC528169-1 (antibody, V domains shown, also called LIBC528169-1 + VK1 germline fix(es)) VH: QVQLQESGPGLVKPSQTLSLTCTVSGGSIRRGGDYWSWIRQHPGKGLEWIGHIYQSGSTKYNPSFEDRATISVNTYKNQFSLKLSSVTAADTAVYYCARDYDILTGYSYYYYGMDVWGQGTTVTVSS VL: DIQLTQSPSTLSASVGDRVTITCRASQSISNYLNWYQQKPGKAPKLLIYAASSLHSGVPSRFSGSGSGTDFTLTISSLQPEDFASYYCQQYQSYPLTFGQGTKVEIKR	Yes
LIBC527827-1 (antibody, V domains shown, also called LIBC527827-1 + VK1 germline fix(es)) VH: QVQLQESGPGLVKPSQTLSLTCTVSGGSIRRGGDYWGWIRQHPGKGLEWIGHVYQSGQTAYNPKFENRATISVKTYKNQFSLKLSSVTAADTAVYYCARNYDTLTGHSYYYYGMDVWGQGTTVTVSS VL: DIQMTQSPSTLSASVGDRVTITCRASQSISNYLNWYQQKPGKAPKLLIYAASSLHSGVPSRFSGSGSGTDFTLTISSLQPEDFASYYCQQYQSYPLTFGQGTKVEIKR	Yes
LIBC528131-1 (antibody, V domains shown, VK3 LC) VH: QVQLQESGPGLVKPSQTLSLTCTVSGGSIRRGGDYWSWIRQHPGKGLEWIGHIYQTGQTAYNPNLEGRATISVNTYKNQFSLKLSSVTAADTAVYYCARDYDILTGYSYYYYGMDVWGQGTTVTVSS VL: EIVLTQSPATLSLSPGERATLSCRASQSVSSYLGWYQQKPGQAPRLLIYGASSRATGIPDRFSGSGSGTDFTLTISRLEPEDFAVYYCQQYGSSPRTFGQGTKVEIKR	Yes
LIBC527906-1 (antibody, V domains shown, also called LIBC527906-1 + VK1 germline fix(es)) VH: QVQLQESGPGLVKPSQTLSLTCTVSGGSIRRGGDYWGWIRQHPGKGLEWIGHIYQTGSTNYNPNFKDRATISVDTYKNQFSLKLSSVTAADTAVYYCARDYDILTGYSYYYYGMDVWGQGTTVTVSS VL: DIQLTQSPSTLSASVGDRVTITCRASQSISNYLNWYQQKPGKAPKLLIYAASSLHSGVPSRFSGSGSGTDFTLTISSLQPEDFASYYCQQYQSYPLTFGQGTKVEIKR	No
